# EXPERIMENTAL_SYSTEM: Ubiquitin carboxyl-terminal hydrolase 17-like protein 5 (Homo sapiens) (UniProt A8MUK1)
# Sequence (A8MUK1 whole entry, looked up): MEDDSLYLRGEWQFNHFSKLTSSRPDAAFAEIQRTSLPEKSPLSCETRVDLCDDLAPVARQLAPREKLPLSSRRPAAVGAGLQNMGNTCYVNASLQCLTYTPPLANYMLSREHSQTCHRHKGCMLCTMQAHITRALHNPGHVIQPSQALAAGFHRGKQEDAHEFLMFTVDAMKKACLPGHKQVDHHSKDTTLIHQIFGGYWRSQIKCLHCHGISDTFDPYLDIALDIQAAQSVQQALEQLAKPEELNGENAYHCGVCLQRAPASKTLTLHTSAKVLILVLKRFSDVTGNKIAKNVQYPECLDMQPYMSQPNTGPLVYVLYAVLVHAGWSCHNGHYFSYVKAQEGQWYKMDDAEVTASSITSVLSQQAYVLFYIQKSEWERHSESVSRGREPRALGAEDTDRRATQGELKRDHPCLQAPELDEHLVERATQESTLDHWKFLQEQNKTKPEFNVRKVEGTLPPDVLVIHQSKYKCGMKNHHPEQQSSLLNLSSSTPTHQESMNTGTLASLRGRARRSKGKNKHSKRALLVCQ
# PROCEDURE_TEXT: ubiquitin-specific protease 17 DUB inhibitors, concentration-effect assay, cell-free, verification of initial screening actives (AID 1645864)
# ASSAY_CONTEXT: purified USP17, ubiquitin-rhodamine cleavage fluorescence, 3 h
Calls of active or inactive are those of the source.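 The calls were made as follows: active = maximal inhibition of USP17 at or above 30% in the confirmation dose-response, a value not among the printed readouts; inactive = the rest.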
Measured IC50 by item

{"COMPOUND": "COc1cc(Cl)ccc1Oc1ncnc2sc(C)c(C)c12", "IC50": "> 50 µM (inactive)"}
{"COMPOUND": "COc1ccc(CCNc2c(-c3ccccc3O)nc3cnccn23)cc1OC", "IC50": "> 50 µM (inactive)"}
{"COMPOUND": "O=C(NCc1ccc(-c2nc3cnccc3o2)cc1)c1ccccc1Br", "IC50": "38.6 µM"}
{"COMPOUND": "O=C(Nc1ccc(F)cc1F)NC1Cc2ccccc2C1", "IC50": "28.2 µM"}
{"COMPOUND": "CCN1CCN(C(=O)CCCN(c2ccccc2)S(C)(=O)=O)CC1", "IC50": "> 50 µM (inactive)"}
{"COMPOUND": "NC(=O)Cn1c(=O)n(Cc2ccc(C(=O)NC3CCCC3)cc2)c(=O)c2ccccc21", "IC50": "> 50 µM (inactive)"}
{"COMPOUND": "CC(CCc1ccccc1)NC(=O)Cn1c(=O)c2cccn2c2ccccc21 (stereo unspecified)", "IC50": "11.6 µM"}
{"COMPOUND": "COc1ccc(-c2cc(-c3nnc(CSc4nc5ccccc5n4C)o3)c3ccccc3n2)cc1OC", "IC50": "> 50 µM (inactive)"}
{"COMPOUND": "NS(=O)(=O)c1cc(C(=O)OCC(=O)NC2CCCc3ccccc32)ccc1Cl (stereo unspecified)", "IC50": "47.4 µM"}
{"COMPOUND": "CCOc1cc(C2C3=C(CC(C)(C)CC3=O)Nc3onc(C)c32)ccc1O (stereo unspecified)", "IC50": "39.7 µM"}
{"COMPOUND": "O=C(Cc1cccc2ccccc12)Nc1nc2ccc(F)cc2s1", "IC50": "> 50 µM (inactive)"}

---

# EXPERIMENTAL_SYSTEM: Ubiquitin carboxyl-terminal hydrolase 17-like protein 5 (Homo sapiens) (UniProt A8MUK1)
# PROCEDURE_TEXT: ubiquitin-specific protease 17 DUB inhibitors, concentration-effect assay, cell-free, verification of initial screening actives (AID 1645864)
# ASSAY_CONTEXT: purified USP17, ubiquitin-rhodamine cleavage fluorescence, 3 h
Calls of active or inactive are those of the source.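 How the source made its calls: active means maximal inhibition of USP17 at or above 30% in the confirmation dose-response, a value not among the printed readouts; inactive means the rest.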
Labels: active, inactive

{"COMPOUND": "O=C(Nc1ccc(F)c(Cl)c1)c1ccc(N2CCCCS2(=O)=O)cc1Cl", "CLASS_ASSIGNMENT": "inactive"}
{"COMPOUND": "O=C(NCCc1ccco1)c1ccc(N2CCOc3ccccc32)s1", "CLASS_ASSIGNMENT": "active"}
{"COMPOUND": "CC(C)(C)C(=O)Nc1ccc(C(=O)Nc2cccc(-c3nnc(-c4ccccc4)o3)c2)cc1", "CLASS_ASSIGNMENT": "active"}
{"COMPOUND": "Cc1cc(-c2nnc(SCC(=O)Nc3ccc(Br)c(C)c3)n2N)n[nH]1", "CLASS_ASSIGNMENT": "active"}
{"COMPOUND": "CCOC(=O)c1ccc(NC(=O)COc2cccc3c2CCN(CC)C3=O)cc1", "CLASS_ASSIGNMENT": "inactive"}
{"COMPOUND": "Cc1cc(C)nc(-n2nc(C)c3c2NC(=O)CSC3c2ccccc2F)n1 (stereo not given)", "CLASS_ASSIGNMENT": "active"}
{"COMPOUND": "COCCNC(=O)c1ccn(-c2ccc3ccc(-c4ccncc4)cn23)n1", "CLASS_ASSIGNMENT": "inactive"}
{"COMPOUND": "CO/C=C/C(=O)c1cc2cnc3c(=N)cc(NC(C)=O)c([nH]1)c23", "CLASS_ASSIGNMENT": "inactive"}
{"COMPOUND": "Fc1ccc(Oc2nc(CN3CCOCC3)nc3sc4c(c23)CCCC4)c(Cl)c1", "CLASS_ASSIGNMENT": "inactive"}
{"COMPOUND": "COc1ccccc1OCC(=O)Nc1ccc2c(c1)CCC(=O)N2Cc1ccccc1", "CLASS_ASSIGNMENT": "inactive"}
